Kindly supply the reported Emax values for the records listed here.
- MEASURED_ON: UniProtKB O14843
- Sequence (O14843 whole entry): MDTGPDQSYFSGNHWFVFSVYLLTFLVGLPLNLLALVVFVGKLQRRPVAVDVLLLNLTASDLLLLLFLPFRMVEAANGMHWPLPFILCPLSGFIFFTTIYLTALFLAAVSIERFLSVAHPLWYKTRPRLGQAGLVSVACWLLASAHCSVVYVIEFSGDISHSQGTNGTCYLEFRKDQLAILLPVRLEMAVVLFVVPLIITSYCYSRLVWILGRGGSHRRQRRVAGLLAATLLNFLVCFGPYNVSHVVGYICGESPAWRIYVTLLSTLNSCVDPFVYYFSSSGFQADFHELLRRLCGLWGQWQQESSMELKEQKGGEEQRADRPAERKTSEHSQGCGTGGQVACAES
- ASSAY: biochemical
- PROTOCOL_CONDITIONS: read-out: GTPγS Emax
Lab note: write values as number then unit, every time.

Study these solved cases before continuing.
CC1=C(C(=O)Nc2ccccc2C)C(c2ccco2)C2=C(CCCC2=O)N1 (stereo not shown) [Compound 1, reference compound] = 100%
CC1=C(C(=O)Nc2c(F)cccc2F)C(CC(C)C)C2=C(CCCC2=O)N1 (stereo not shown) = 89%
COc1ccccc1NC(=O)C1=C(C)NC2=C(C(=O)CCC2)C1c1ccco1 (stereo not shown) = 124%
CC1=C(C(=O)Nc2ccccc2C)C(c2cccs2)C2=C(CCCC2=O)N1 (stereo not shown) = 111%
CC1=C(C(=O)Nc2cccc(C)c2)C(c2ccco2)C2=C(CCCC2=O)N1 (stereo not shown) = 78%
CCc1ccc(C2C(C(=O)Nc3ccccc3C)=C(C)NC3=C2C(=O)CCC3)cc1 (stereo not shown) = 143%
CC1=C(C(=O)Nc2ccccc2C)C(c2ccccc2)C2=C(CCCC2=O)N1 (stereo not shown) = 103%
CC1=C(C(=O)Nc2ccccc2C)C(CC(C)C)C2=C(CCCC2=O)N1 (stereo not shown) = 109%
CC1=C(C(=O)Nc2ccc(C)cc2)C(c2ccco2)C2=C(CCCC2=O)N1 (stereo not shown) = 88%
CC1=C(C(=O)Nc2ccccc2C)C(c2ccc(C)cc2)C2=C(CCCC2=O)N1 (stereo not shown) = 88%

Give Emax for all molecules that follow.
1. CC1=C(C(=O)Nc2ccccc2C)C(c2ccc(Br)cc2)C2=C(CCCC2=O)N1 (stereo not shown)
2. CC1=C(C(=O)Nc2ccccc2C)C(c2ccoc2)C2=C(CCCC2=O)N1 (stereo not shown) [Compound 2, reference compound]
3. CC1=C(C(=O)Nc2ccccc2C)C(c2cccc(C(F)(F)F)c2)C2=C(CCCC2=O)N1 (stereo not shown)
4. CC1=C(C(=O)Nc2cc(Cl)ccc2Cl)C(c2ccco2)C2=C(CCCC2=O)N1 (stereo not shown) [Compound 16, reference compound]
5. CC1=C(C(=O)Nc2ccccc2Cl)C(CC(C)C)C2=C(CCCC2=O)N1 (stereo not shown)
6. CC1=C(C(=O)Nc2ccccc2I)C(CC(C)C)C2=C(CCCC2=O)N1 (stereo not shown)

[reply]
1: 85%; 2: 135%; 3: 118%; 4: 120%; 5: 105%; 6: 129%

These data points were gathered from paper PMC7307922.
